Provide the recorded growth inhibition for the entries that follow.
- assay-details: NCI Yeast Anticancer Drug Screen. Data for the mec2-1 strain (AID 157)
- condition-parameters: S. cerevisiae mec2-1 strain, at 50.0 µM, hits give high values
The panel holds about 79,000 compounds, 15% with a hit somewhere; the sample as a whole holds those more often. Calls of active or inactive are those of the source. No stated cut-off is given here; in the data, active means growth inhibition above about 70%; inactive means the rest. Where a SMILES comes first, the peptide text is derived from it.

For orientation, consider the following solved cases.
Q. growth inhibition for CC/C(CC(=O)CCC(=O)Nc1ccccc1[N+](=O)[O-])=N/NC(=O)C[n+]1ccccc1 ?
A. 6.9% (inactive)

Q. Query O=C1NC(c2cccc3c2OCO3)N=C2Oc3ccccc3C=C12 (stereo unspecified) next
A. 1.95% (inactive)

Q. Next up: Cc1ccc(-c2c(C#N)c(-c3ccccc3)c(C#N)c(=O)n2NS(=O)(=O)c2ccc(C)cc2)cc1
A. 28.1% (inactive)

Q. Queued: COc1ccc(S(=O)(=O)N2OC2c2ccccc2)cc1 (stereo unspecified)
A. 2.65% (inactive)

Q. Could you do the same for CCCCCCCCCc1ccc(OC(=O)CCC)cc1 , please?
A. -22.6% (inactive)

Q. Follow-up item: CC(C)CC(NC(=O)C(NC(=O)C(N)C(C)O)C(C)C)C(=O)O (stereo not drawn) (H-Thr-Val-Leu-OH; configuration not given here)
A. 3.1% (inactive)

Q. Cool, now OCCN(CCO)CCCNc1ccnc2cc(Cl)ccc12
A. -2% (inactive)

Q. Check Cc1cc(-n2nnc(C(=O)O)c2-c2ccccc2)c2ccc(Cl)cc2n1 too.
A. -4.35% (inactive)

Q. // query: CC(=O)/C(=C/c1ccco1)CC(=O)O
A. -22.1% (inactive)

Q. Would you mind doing OC1CCC2CCCCC2C1 (stereo unspecified) as well?
A. -16.9% (inactive)

Below: the item to evaluate.
Q. What does the record list as growth inhibition for Clc1ccc(C(CI)c2ccccc2Cl)cc1 (stereo unspecified) ?
A. 11.3% (inactive)

* * *

- assay-details: NCI Yeast Anticancer Drug Screen. Data for the cln2 rad14 strain (AID 165);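 further: 0% = growth equal to vehicle treated cultures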
- condition-parameters: S. cerevisiae cln2 rad14 strain, at 50.0 µM
This is part of a sample that, as a whole, favours compounds with a hit. Of some 79,000 tested, about 15% had one in any assay. Active and inactive are the calls of the source. Cut-off read from the data, not from the text of the source: active = growth inhibition above about 70%; inactive = the rest.
Could you please pick one outcome from this set? active, inactive

Q. Entry COC1=CC(=O)C(CC=C(C)C)=CC1=O : call = ?
A. inactive

Q. Then this compound: CC(=O)Oc1ccc(C2OC(=O)c3ccccc3N2C(C)=O)cc1 (centres undefined)
A. inactive

Q. Could you do the same for CC(C)(c1ccsc1)c1sccc1C(=O)O , please?
A. inactive

Q. Item: COC(=N)/C(C#N)=N/C1OCC(O)C(O)C1O (centres undefined)
A. inactive

Q. Try COc1cc(C(c2cc3c(cc2OC(C)=O)OCO3)C(C(C)=O)C(C)=O)cc(OC)c1OC (centres undefined) next.
A. inactive

Q. Then this compound: N#CC1(C#N)C(c2ccccc2)C=CC12OCCCO2 (centres undefined)
A. inactive

Q. And what about the compound CCOC(=O)CCC[Si](CC)(CC)CC ?
A. inactive

Q. Now this one: O=C(O)CCc1c[nH]c2ccccc12
A. inactive

Q. Similarly, Nc1nc(N)c(-c2ccc(Cl)cc2)c(CCC(=O)Nc2cccc(C(F)(F)F)c2)n1 ?
A. inactive

Q. And Brc1c(NC2=NCCN2)ccc2nccnc12 ?
A. inactive

Q. Also, CN(C)C(=O)C1C2CCC(C3CC32)C1C(=O)N(C)C (centres undefined) please.
A. inactive

Q. What about CCCc1c(O)ccc(C)c1C ?
A. inactive

Q. Note, next up: Brc1ccccc1N=Nc1ccccc1Br
A. inactive
